Source of measurements: the RNAGym collection of RNA variant scans (doi:10.1093/molbev/msab373)

Parameter: reverse-splicing fitness. Scope: all listed entries.
B1: Azoarcus group I ribozyme (parent)
chain: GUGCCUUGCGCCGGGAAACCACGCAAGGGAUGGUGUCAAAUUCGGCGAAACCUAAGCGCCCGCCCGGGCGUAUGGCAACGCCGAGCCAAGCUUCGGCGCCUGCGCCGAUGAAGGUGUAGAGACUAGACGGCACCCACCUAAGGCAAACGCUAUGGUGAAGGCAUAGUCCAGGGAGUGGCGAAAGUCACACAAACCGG

variants of: B1; test: reverse-splicing fitness (ratio to wild type); higher = more active; in vitro selection; Mg2+ level not given
Output: the number by itself.

Solved entries (count: 5):
Mutations: A120G A145U C150A C169A U176G
reverse-splicing fitness: 0.00487
--
Mutations: C82G A111C A120C A145C C150G C169U U176A
reverse-splicing fitness: 0.00824
--
Mutations: A111C A120G A145C C169A U176G
reverse-splicing fitness: 0.00362
--
Mutations: C82U A111G A120C A145U C150U C169A U176G
reverse-splicing fitness: 0.00488
--
Mutations: A111G A120G C169U U176G
reverse-splicing fitness: 0.011

Task: Consider the variant C82A A111G A120C A145C C150A C169G and give its measured reverse-splicing fitness.
Result: 0.00832

Task: Fill in the blank: the reported reverse-splicing fitness of A145C C150G C169A U176C is ____.
Result: 0.0118

Task: Can you look up the measured reverse-splicing fitness of C82U A120G A145G C150G U176A for me?
Result: 0.00607
